# test-summary: FRG1 promoter luciferase signal modulators, primary screen, FRG1 inhibition for FSHD, cell-based, C2C12 myotubes, firefly/Renilla luciferase, luminescence (AID 1084)
# run-conditions: higher = more signal, called active from +8 up or from −8 down
test-readout: z-score
One number for each entry.

CC(C)N1CC=CC23O[C@@H]4/C=C\CCCOC(=O)C4[C@H]2C(=O)N(C(C)CO)[C@@H]3C1=O (some centres not stated) : -0.798
COC(=O)[C@@]1(Cc2ccccc2)[C@H]2c3cc(C(=O)N(C)C)n(Cc4nc5ccccc5[nH]4)c3C[C@H]2CN1C(=O)c1ccccc1 : -1.3

Need z-score for each of these compounds.
1. CCCCC(=C=CC[C@H](O)c1cccc(OCCO)c1)C[C@H](O)c1cc(Cl)cc(Cl)c1O
2. C=CCNC(=O)[C@@H]1[C@H]2C(=O)O[C@H](c3ccccc3)[C@H](c3ccccc3)N2[C@H](c2ccc(OCCO)cc2)[C@@]12C(=O)Nc1ccc(C#CCNC(N)=O)cc12
3. C=CCNC(=O)[C@@H]1[C@H]2C(=O)O[C@H](c3ccccc3)[C@H](c3ccccc3)N2[C@H](c2ccc(O)cc2)[C@@]12C(=O)Nc1ccc(C#CC3=CCCCC3)cc12
4. CC[C@@H]1C=C(C(=O)O)[C@H](c2cccc(Cl)c2)N1S(=O)(=O)c1ccc(C)cc1
5. C=C[C@H](OC)[C@@H](O)c1ccc(OC)c(O)c1

1: -1.64; 2: 0.243; 3: -0.231; 4: -1.53; 5: 0.0137

###

# test-summary: osmotic lysis modulators in infected erythrocytes, primary screen, PSAC antagonist project, cell-based, P. falciparum Indochina, OD700, 3 h (AID 1156)
# run-conditions: higher = more signal, called active from +8 up or from −8 down
Activity calls are given as the source filed them.
Would you kindly list z-score for each of these molecules?

C=C(C(=O)CC[C@@H](OC(=O)c1ccccc1-c1ccccc1C(=O)O)c1cccc(OCCO)c1)C(C)C : 0.51 (inactive)
O=C1NC(=O)C2C1C=CC(C(O)C(O)CO)N2Nc1ccccn1 (stereo not drawn) : -0.489 (inactive)
C=CCNC(=O)[C@@H]1[C@H]2C(=O)O[C@H](c3ccccc3)[C@H](c3ccccc3)N2[C@H](c2ccc(OCCO)cc2)[C@@]12C(=O)N(C(=O)OCCOC)c1ccccc12 : -0.947 (inactive)
C=CCC(OC(C)=O)[C@@H]1[C@@H](N(Cc2ccc(-c3ccccc3)cc2)C(=O)Cc2ccc(OC)cc2)c2cc(OCCCO)ccc2N1C(=O)Cc1ccc(OC)cc1 (stereo partly drawn) : 0.167 (inactive)

Need z-score for each of these molecules.
1. CN1C(=O)C2C=CC(C(O)c3ccc(I)cc3)N(N(c3ccccc3)c3ccccc3)C2C1=O (stereo not drawn)
2. C=C(C(=O)CC[C@H](OC(=O)c1ccccc1-c1ccccc1C(=O)O)c1ccc(OCCO)cc1)C(C)C
3. CCOC(=O)C1=CCC(c2ccncc2)N(S(=O)(=O)c2ccc(C)cc2)C1 (stereo not drawn)
4. COC(=O)[C@]1(Cc2ccccc2N=[N+]=[N-])N=C(c2ccc(OCCCO)cc2)O[C@@H]1c1ccccc1CN=[N+]=[N-]
5. OCCCc1cc[n+](Cc2cc3c(cc2Br)OCO3)cc1
6. COc1ccc(C(O)C2C=CC3C(=O)N(c4ccccc4)C(=O)C3N2Nc2ccccc2F)c2ccccc12 (stereo not drawn)
7. C=CC[C@H](O)c1ccc(O)c(F)c1

1: 0.537 (inactive); 2: 2.09 (inactive); 3: 0.488 (inactive); 4: -0.732 (inactive); 5: -0.895 (inactive); 6: 0.419 (inactive); 7: -0.304 (inactive)

Need z-score for each of these molecules.
1. CCCC=C(CCC)[C@@H](NC(=O)c1ccc(C(=O)OC)cc1)c1ccc(C(=O)OC)cc1
2. CC1C2C(CCCO)=CC(C3C(=O)N(C(N)=O)C(=O)C23)N1Cc1cccc(OC(F)(F)F)c1 (stereo not drawn)
3. COC(=O)C1(CC(C)C)C=C2C(=C(C)C(=O)C2C)CN1 (stereo not drawn)
4. Cc1ccc(S(=O)(=O)N2[C@@H](c3ccccc3)C(C(=O)O)=CC[C@H]2c2ccc(F)cc2)cc1
5. C=C(CCCC)C(=O)CC[C@@H](OC(C)=O)c1ccc(OCCO)cc1
6. COCCCNC(=O)[C@]1(Cc2ccccc2CN=[N+]=[N-])N=C(c2ccc(OCCCO)cc2)O[C@@H]1c1ccccc1N=[N+]=[N-]
7. [N-]=[N+]=NCc1ccccc1C[C@@]1(C(=O)NCCN2CCOCC2)N=C(c2ccc(OCCCO)cc2)O[C@@H]1c1ccccc1

1. 1.33 (inactive)
2. -0.308 (inactive)
3. 0.396 (inactive)
4. 1.1 (inactive)
5. 0.888 (inactive)
6. 1.91 (inactive)
7. 1.44 (inactive)

###

Would you kindly list z-score for each of these compounds?
# test-summary: MM1S myeloma cell viability, profiling panel, resazurin fluorescence, basal, 24 h, PK04 Diversity Set (AID 1174);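 note: MM1S multiple myeloma cell line; test concentration not given here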
# run-conditions: higher = more signal, called active from +8 up or from −8 down
The source made the active and inactive calls.

A selection of reference data follows.
C=CCNC(=O)[C@@H]1[C@H]2C(=O)O[C@H](c3ccccc3)[C@H](c3ccccc3)N2[C@H](c2ccc(OCCO)cc2)[C@@]12C(=O)N(C(=O)OCCOC)c1ccccc12 : -0.522 (inactive)
CC(=O)NCCCC[C@@H]1NC(=O)[C@H]2C[C@@H](C(=O)O)[C@@H](c3cccc(OCCO)c3)N2C1=O : 0.441 (inactive)
CCCCCCc1nc(-c2ccc(OC)nc2)c(C)c2c1[Si](C(C)C)(C(C)C)OC2 : 1.86 (inactive)

Need z-score for each of these compounds.
1. COc1ccc(C(=O)Nc2cccc(CN3C(=O)[C@]4(O[C@H](CC(=O)N(CCO)Cc5ccccc5)[C@@H]([Si](C)(C)c5ccc(OC)cc5)[C@@H]4C)c4ccccc43)c2)cc1
2. COC(=O)[C@@]1(Cc2ccccc2)[C@H]2c3cc(C(=O)N(C)C)n(CCF)c3C[C@H]2CN1C(=O)c1ccccc1
3. COC(=O)C1=CC(CCCO)=CC(c2ccc(CN3CCCC3)cc2)N(C)C=C1C(=O)OC (stereo not given)
4. CC(C)C[C@H]1NC(=O)CNC(=O)[C@@]23C(=O)N[C@@H](Cc4ccccc4)C2[C@H](C)[C@@]2(C)O[C@H]2C3/C=C/C/C=C\CNC1=O (stereo not given in full)

1: -1.87 (inactive); 2: -0.878 (inactive); 3: -0.381 (inactive); 4: 0.105 (inactive)

###

# test-summary: splicing luciferase reporter signal modulators, primary screen, spliceosome inhibition project, cell-based, HEK293, splice +/- reporter (AID 1101);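 note: HEK293 cells carrying a splicing-competent luciferase reporter gene; test concentration not given here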
# run-conditions: luminescence, 24 h, higher = more signal, called active from +8 up or from −8 down
Would you kindly list z-score for each of these compounds?
Answers are plain numbers.

Need z-score for each of these compounds.
1. O=C1N(Cc2ccccc2)Cc2ccccc2C[C@@]12COC(c1ccc(OCCCO)cc1)=N2
2. CC(C)C[C@H]1NC(=O)CNC(=O)[C@@]23C(=O)N[C@@H](Cc4ccccc4)C2[C@H](C)[C@@]2(C)O[C@H]2C3/C=C/C/C=C\CNC1=O (some centres undefined)
3. Cc1ccc(S(=O)(=O)N2[C@@H](c3ccccc3)C(C(=O)O)=C[C@H]2C(C)(C)C)cc1

[6.28, 0.187, 0.233]

Need z-score for each of these compounds.
1. COCCCNC(=O)[C@]1(Cc2ccccc2CN=[N+]=[N-])N=C(c2ccc(OCCCO)cc2)O[C@@H]1c1ccccc1N=[N+]=[N-]
2. Cc1ccc(S[C@]2(C(=O)NC(C)C)CC(=O)N(Cc3ccccc3)[C@@H]2c2ccc(CO)cc2I)cc1
3. CCCCN1CC=CC23O[C@@H]4C=CCCOC(=O)C4[C@H]2C(=O)N(CCO)[C@@H]3C1=O (some centres undefined)
4. C=CCOC(=O)[C@@H]1[C@H]2C(=O)O[C@H](c3ccccc3)[C@H](c3ccccc3)N2[C@H](c2ccc(OCCOC(=O)[C@@H]3C[C@@H]4C(=O)N[C@@H](CC(C)C)C(=O)N4[C@@H]3c3ccc(O)cc3)cc2)[C@@]12C(=O)Nc1ccc(I)cc12
5. COCCOC(=O)N1C(=O)[C@@]2(c3cc(C#CCCO)ccc31)[C@H](c1ccc(O)cc1)N1[C@H](c3ccccc3)[C@H](c3ccccc3)OC(=O)[C@H]1[C@@H]2C(=O)NC[C@H](O)c1ccccc1

-0.486
-0.328
0.244
-0.771
0.49

Need z-score for each of these compounds.
1. COC(=O)C(CC#Cc1ccc2c(c1)[C@]1(C(=O)N2)[C@H](C(=O)N2CCCCCCC2)[C@H]2C(=O)O[C@H](c3ccccc3)[C@H](c3ccccc3)N2[C@@H]1c1ccc(OCCO)cc1)C(=O)OC
2. COc1ccc(CCNC(=O)[C@@H]2c3ccccc3C(=O)N(Cc3cc(F)cc(C(F)(F)F)c3)[C@H]2c2ccc(CO)cc2)cc1

0.741
-0.267
